- Assay System: ATP-dependent translocase ABCB1 (Homo sapiens, UniProt P08183)
- Sequence (P08183 whole entry): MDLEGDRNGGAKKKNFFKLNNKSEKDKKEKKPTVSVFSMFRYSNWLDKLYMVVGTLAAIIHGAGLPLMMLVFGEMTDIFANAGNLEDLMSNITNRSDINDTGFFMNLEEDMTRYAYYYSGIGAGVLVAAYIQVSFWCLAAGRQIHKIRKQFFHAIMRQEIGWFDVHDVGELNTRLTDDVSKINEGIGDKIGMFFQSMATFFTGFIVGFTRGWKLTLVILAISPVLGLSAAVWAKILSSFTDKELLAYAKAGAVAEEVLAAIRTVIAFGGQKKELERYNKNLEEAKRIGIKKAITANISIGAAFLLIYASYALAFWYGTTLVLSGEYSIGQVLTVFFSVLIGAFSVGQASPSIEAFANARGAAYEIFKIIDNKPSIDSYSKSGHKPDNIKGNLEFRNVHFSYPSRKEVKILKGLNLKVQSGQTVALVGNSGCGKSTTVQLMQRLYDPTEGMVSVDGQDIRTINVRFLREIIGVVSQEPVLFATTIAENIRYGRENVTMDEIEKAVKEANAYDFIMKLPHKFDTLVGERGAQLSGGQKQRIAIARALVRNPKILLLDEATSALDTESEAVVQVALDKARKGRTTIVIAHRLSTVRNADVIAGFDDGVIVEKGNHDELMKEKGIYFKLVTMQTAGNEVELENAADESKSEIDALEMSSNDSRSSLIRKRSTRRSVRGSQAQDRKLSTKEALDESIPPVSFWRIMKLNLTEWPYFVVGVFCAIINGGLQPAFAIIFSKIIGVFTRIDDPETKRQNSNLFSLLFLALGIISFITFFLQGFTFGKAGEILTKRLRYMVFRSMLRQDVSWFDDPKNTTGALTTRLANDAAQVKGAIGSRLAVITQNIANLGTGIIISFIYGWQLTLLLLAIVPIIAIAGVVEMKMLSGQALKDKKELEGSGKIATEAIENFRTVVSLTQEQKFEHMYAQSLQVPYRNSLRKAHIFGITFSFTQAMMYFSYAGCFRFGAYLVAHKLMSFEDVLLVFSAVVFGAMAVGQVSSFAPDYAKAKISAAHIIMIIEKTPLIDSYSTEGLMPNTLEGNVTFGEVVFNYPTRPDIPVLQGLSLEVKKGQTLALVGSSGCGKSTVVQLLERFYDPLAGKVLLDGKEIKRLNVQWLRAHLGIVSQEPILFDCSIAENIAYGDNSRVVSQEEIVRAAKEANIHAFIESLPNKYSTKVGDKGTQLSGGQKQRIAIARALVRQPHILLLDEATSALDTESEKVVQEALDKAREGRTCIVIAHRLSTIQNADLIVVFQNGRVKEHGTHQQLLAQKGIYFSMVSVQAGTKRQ
- Assay Comment: TP_TRANSPORTER: binding in plasma membranes from CEM/VLB1.0 cells

Compound | Assay System | Kd / µM
CC[C@H](C)[C@H]1O[C@]2(CC[C@@H]1C)C[C@@H]1C[C@@H](C/C=C(\C)[C@@H](O[C@H]3C[C@H](OC)[C@@H](O[C@H]4C[C@H](OC)[C@@H](O)[C@H](C)O4)[C@H](C)O3)[C@@H](C)/C=C/C=C3\CO[C@@H]4[C@H](O)C(C)=C[C@@H](C(=O)O1)[C@]34O)O2 [ABAMECTIN] | ATP-dependent translocase ABCB1 (Homo sapiens, UniProt P08183) | 0.011
